- Experimental target: human adenosine A3 receptor (Homo sapiens, UniProt P0DMS8)
- Construct: expressed in transfected cells; host or cells: Chinese hamster ovary (CHO) cells with CRE/SPAP/HYG reporter elements
- Sequence (P0DMS8 1-318): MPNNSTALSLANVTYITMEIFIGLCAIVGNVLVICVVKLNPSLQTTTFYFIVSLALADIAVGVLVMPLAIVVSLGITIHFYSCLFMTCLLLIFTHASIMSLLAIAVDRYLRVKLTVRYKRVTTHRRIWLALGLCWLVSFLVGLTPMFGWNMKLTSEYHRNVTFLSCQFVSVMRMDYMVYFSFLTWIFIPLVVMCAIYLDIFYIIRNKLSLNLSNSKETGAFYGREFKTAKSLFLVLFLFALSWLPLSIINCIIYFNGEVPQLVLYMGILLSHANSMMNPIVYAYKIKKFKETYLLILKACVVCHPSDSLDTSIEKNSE
- Procedure summary: Reporter gene assay (CRE/SPAP) in CHO cells, agonist potency relative to NECA, adenosine A3 receptor
- Assay type: cell-based
- Parameters: key: equipotent concentration ratio, NECA = 1
- Measurement parameters: ECR = equipotent concentration ratio relative to NECA = 1, inhibition of forskolin-stimulated SPAP production
# thresholds on Adenosine A3 receptor ECR* define classes: lower: < 200; middle: ≥ 200 and < 400; upper: ≥ 400

Q: For this compound, which bin applies? CNS(=O)(=O)CCNc1ncnc2c1ncn2[C@@H]1O[C@H](c2nc(C(C)C)no2)[C@@H](O)[C@H]1O
A: upper

Q: For this compound, which bin applies? O[C@@H]1[C@H](O)[C@@H](c2nc(C3CC3)no2)O[C@H]1n1cnc2c(NC3CCOCC3)ncnc21
A: upper

Q: For this compound, which bin applies? O[C@@H]1[C@H](O)[C@@H](c2nc(C3CC3)no2)O[C@H]1n1cnc2c(Nc3ccc(Cl)cc3F)ncnc21
A: middle

Q: For this compound, which bin applies? O[C@@H]1[C@H](O)[C@@H](c2nc(C3CC3)no2)O[C@H]1n1cnc2c(N[C@H]3CCC[C@@H]3O)ncnc21
A: lower

Q: For this compound, which bin applies? CC(C)(C)c1cc([C@H]2O[C@@H](n3cnc4c(NC5CCS(=O)(=O)CC5)ncnc43)[C@H](O)[C@@H]2O)on1
A: lower

Q: For this compound, which bin applies? CC(C)c1nnc([C@H]2O[C@@H](n3cnc4c(NC5CCOCC5)ncnc43)[C@H](O)[C@@H]2O)o1
A: lower

Q: For this compound, which bin applies? CC(C)(C)c1nnc([C@H]2O[C@@H](n3cnc4c(Nc5ccc(Cl)cc5F)ncnc43)[C@H](O)[C@@H]2O)[nH]1
A: upper

Q: For this compound, which bin applies? CC(C)c1nnc([C@H]2O[C@@H](n3cnc4c(NC5CCOCC5)ncnc43)[C@H](O)[C@@H]2O)[nH]1
A: middle

Q: For this compound, which bin applies? CC(C)c1noc([C@H]2O[C@@H](n3cnc4c(NC5CC5)ncnc43)[C@H](O)[C@@H]2O)n1
A: upper

Q: For this compound, which bin applies? CC(C)(C)c1noc([C@H]2O[C@@H](n3cnc4c(N[C@H]5CCC[C@@H]5O)ncnc43)[C@H](O)[C@@H]2O)n1
A: middle

Q: For this compound, which bin applies? CCOC(=O)N1CCC(Nc2ncnc3c2ncn3[C@@H]2O[C@H](c3nnc(C4CC4)o3)[C@@H](O)[C@H]2O)CC1
A: middle

Q: For this compound, which bin applies? CCNS(=O)(=O)CCNc1ncnc2c1ncn2[C@@H]1O[C@H](c2cc(C(C)(C)C)no2)[C@@H](O)[C@H]1O
A: lower

Q: For this compound, which bin applies? O[C@@H]1[C@H](O)[C@@H](c2nnc(C3CC3)o2)O[C@H]1n1cnc2c(NC3CCOCC3)ncnc21
A: middle

Q: For this compound, which bin applies? CCC(CC)Nc1nc(Cl)nc2c1ncn2[C@@H]1O[C@H](c2nc(C3CC3)no2)[C@@H](O)[C@H]1O.O=CO.O=CO
A: upper

Q: For this compound, which bin applies? CCNS(=O)(=O)CCNc1ncnc2c1ncn2[C@@H]1O[C@H](c2nnc(C(C)(C)C)o2)[C@@H](O)[C@H]1O
A: middle

Q: For this compound, which bin applies? CC(C)CNc1ncnc2c1ncn2[C@@H]1O[C@H](c2nc(C(C)(C)C)no2)[C@@H](O)[C@H]1O
A: lower

Q: For this compound, which bin applies? O[C@@H]1[C@H](O)[C@@H](c2nnc(C(F)(F)F)o2)O[C@H]1n1cnc2c(NC3CCCC3)ncnc21
A: upper

Q: For this compound, which bin applies? CC(C)(C)c1nnc([C@H]2O[C@@H](n3cnc4c(Nc5ccc(Cl)cc5F)ncnc43)[C@H](O)[C@@H]2O)o1
A: upper
